System: SW872
Test: relative viability vs DMSO control (72 h) (fraction); higher = more viable cells
Settings: 10 µM
Please provide measured relative viability for the entries that follow.
Give bare numbers.

The cases that follow already have their relative viability on record.
>>> recorded_number("Cc1cnc(Nc2ccc(OCCN3CCCC3)cc2)nc1Nc1cccc(S(=O)(=O)NC(C)(C)C)c1")
0.00193
>>> recorded_number("CC(C)NC(=O)C1CCC(n2c(NC(=O)c3ccc(F)cc3)nc3ccc(CN4CCC(C(C)(C)O)CC4)cc32)CC1 (stereo not drawn)")
0.274

Kindly review the next compound as well.
Briefly, relative viability measured for C=CC(=O)N1CCC([C@@H]2CCNc3c(C(N)=O)c(-c4ccc(Oc5ccccc5)cc4)nn32)CC1 : 0.844

* * *

Test system: SW982
Assay: relative viability vs DMSO control (72 h) (fraction); higher = more viable cells
Conditions: 0.00152 µM
property-label: relative viability
Answers are plain numbers.

>>> recorded_number("Cc1cnc(Nc2ccc(OCCN3CCCC3)cc2)nc1Nc1cccc(S(=O)(=O)NC(C)(C)C)c1")
1.07

Report relative viability for each item below.
1. CC(C)N1CCN(Cc2cnc(-c3cc(-c4cccc5[nH]ccc45)cc4[nH]ncc34)o2)CC1
2. CCc1cc2c(cc1N1CCC(N3CCOCC3)CC1)C(C)(C)c1[nH]c3cc(C#N)ccc3c1C2=O
3. COCc1c(-c2cc3cc(C)cc(OC)c3s2)c2c(N)ncnn2c1CN1CCNC(=O)C1
4. Cc1ccc(F)c(NC(=O)Nc2ccc(-c3cccc4[nH]nc(N)c34)cc2)c1
5. C[C@@H]1COCCN1c1cc(-c2ccnn2C)c2ccnc(-c3ccn[nH]3)c2n1
6. CCCS(=O)(=O)Nc1ccc(F)c(C(=O)c2c[nH]c3ncc(-c4ccc(Cl)cc4)cc23)c1F
7. COc1cc2/c(=N/c3ccc(Br)cc3F)nc[nH]c2cc1OCC1CCN(C)CC1

Outgoing:
[0.918, 1.06, 1.07, 1.05, 1.05, 1.05, 0.977]

* * *

Test system: KHOS-240S
Assay: relative viability vs DMSO control (72 h) (fraction); higher = more viable cells
Conditions: 3.333 µM
Doc: threshold 0.9 (exclusive). Items with relative viability beneath it return true (1); others return false (0).

>>> label_class("CNC(=O)c1ccc(-c2cnc3ncc(Cc4ccc5ncccc5c4)n3n2)cc1F")
"false (0)"

Incoming: Strictly below 0.9 in relative viability? Cc1ccc(F)c(NC(=O)Nc2ccc(-c3cccc4[nH]nc(N)c34)cc2)c1
Outgoing: false (0)

Incoming: Strictly below 0.9 in relative viability? Cn1cnc2c(F)c(Nc3ccc(Br)cc3F)c(C(=O)NOCCO)cc21
Outgoing: true (1)

Incoming: Strictly below 0.9 in relative viability? C[C@]1(O)C[C@@H](c2nc(-c3ccc4ccc(-c5ccccc5)nc4c3)c3c(N)nccn32)C1
Outgoing: true (1)

Incoming: Strictly below 0.9 in relative viability? O=C(Nc1cnn2ccc(N3CCC[C@@H]3c3cc(F)ccc3F)nc12)N1CC[C@H](O)C1
Outgoing: false (0)

Incoming: Strictly below 0.9 in relative viability? C[C@@H](c1ccc2nccn2c1)n1nnc2ncc(-c3cnn(C)c3)nc21
Outgoing: false (0)

Incoming: Strictly below 0.9 in relative viability? CN1CCN(c2ccc3nc(-c4c(N)c5c(F)cccc5[nH]c4=O)[nH]c3c2)CC1
Outgoing: true (1)

Incoming: Strictly below 0.9 in relative viability? CC(=O)Nc1cccc(-n2c(=O)n(C3CC3)c(=O)c3c(Nc4ccc(I)cc4F)n(C)c(=O)c(C)c32)c1
Outgoing: true (1)

* * *

System: RD
Assay: relative viability vs DMSO control (72 h) (fraction); higher = more viable cells
Settings: 0.00051 µM
Please provide measured relative viability for the entries that follow.
Give bare numbers.

The cases that follow already have their relative viability on record.
>>> recorded_number("Cc1ccc(NC(=O)c2ccc(CN3CCN(C)CC3)cc2)cc1Nc1nc(-c2cccnc2)cs1")
0.962
>>> recorded_number("N#CC[C@H](C1CCCC1)n1cc(-c2ncnc3[nH]ccc23)cn1")
0.972
>>> recorded_number("CC(C)NC(=O)C1CCC(n2c(NC(=O)c3ccc(F)cc3)nc3ccc(CN4CCC(C(C)(C)O)CC4)cc32)CC1 (centres undefined)")
1.09

Kindly review the next compound as well.
Briefly, relative viability measured for CC1(C)CNc2cc(NC(=O)c3cccnc3NCc3ccncc3)ccc21 : 0.964

* * *

Tested on: SW982
Assay: standardised AUC of viability dose-response curve (72 h) (fraction (0-1)); higher = less growth inhibition (more resistant)
Please provide measured standardised AUC for the entries that follow.
Answers are plain numbers.

The cases that follow already have their standardised AUC on record.
>>> recorded_number("CN[C@@H]1C[C@H]2O[C@@](C)([C@@H]1OC)n1c3ccccc3c3c4c(c5c6ccccc6n2c5c31)C(=O)NC4")
0.25
>>> recorded_number("Cc1cc(C)c(/C=C2\\C(=O)Nc3ccccc32)[nH]1")
0.936

Report standardised AUC for each item below.
1. CN1CCN(c2ccc3nc(-c4c(N)c5c(F)cccc5[nH]c4=O)[nH]c3c2)CC1
2. Cn1cnc2c(F)c(Nc3ccc(Br)cc3F)c(C(=O)NOCCO)cc21

Outgoing:
1. 0.792
2. 0.89

* * *

Tested on: SW872
Test: relative viability vs DMSO control (72 h) (fraction); higher = more viable cells
Conditions: 0.00457 µM
property-label: relative viability
Numbers only.

>>> recorded_number("CNC(=O)c1ccc(-c2cnc3ncc(Cc4ccc5ncccc5c4)n3n2)cc1F [Capmatinib]")
1.03
>>> recorded_number("Cc1ccc(F)c(NC(=O)Nc2ccc(-c3cccc4[nH]nc(N)c34)cc2)c1 [Linifanib]")
1.02

Report relative viability for each item below.
1. C[C@@H](c1ccc2nccn2c1)n1nnc2ncc(-c3cnn(C)c3)nc21 [Volitinib]
2. CN1CCC(COc2cnc(-c3cccc(Cn4nc(-c5cccc(C#N)c5)ccc4=O)c3)nc2)CC1 [Tepotinib]
3. CO[C@H]1C[C@@H]2CC[C@@H](C)[C@@](O)(O2)C(=O)C(=O)N2CCCC[C@H]2C(=O)O[C@H]([C@H](C)C[C@@H]2CC[C@@H](OP(C)(C)=O)[C@H](OC)C2)CC(=O)[C@H](C)/C=C(\C)[C@@H](O)[C@@H](OC)C(=O)[C@H](C)C[C@H](C)/C=C/C=C/C=C/1C [Ridaforolimus]
4. COc1cc2/c(=N/c3ccc(Br)cc3F)nc[nH]c2cc1OCC1CCN(C)CC1 [Vandetanib]
5. CCN1CCN(Cc2ccc(Nc3ncc(F)c(-c4cc(F)c5nc(C)n(C(C)C)c5c4)n3)nc2)CC1 [Abemaciclib]

Outgoing:
1. 1.08
2. 1.04
3. 0.712
4. 1.02
5. 1.02

Report relative viability for each item below.
1. CNC(=O)c1cc(Oc2ccc(NC(=O)Nc3ccc(Cl)c(C(F)(F)F)c3)c(F)c2)ccn1 [Regorafenib]
2. CN1CCN(c2ccc3nc(-c4c(N)c5c(F)cccc5[nH]c4=O)[nH]c3c2)CC1 [Dovitinib]

Outgoing:
1: 1.14; 2: 1.08

* * *

Tested on: SW684
Test: relative viability vs DMSO control (72 h) (fraction); higher = more viable cells
Conditions: 0.00051 µM
property-label: relative viability
Numbers only.

The cases that follow already have their relative viability on record.
>>> recorded_number("Cc1cc(C)c(/C=C2\\C(=O)Nc3ccccc32)[nH]1")
0.962
>>> recorded_number("CC(C)(C)c1cc(NC(=O)Nc2ccc(-c3cn4c(n3)sc3cc(OCCN5CCOCC5)ccc34)cc2)no1")
1.21

Kindly review the next compound as well.
Note to self: relative viability of CO[C@H]1C[C@@H]2CC[C@@H](C)[C@@](O)(O2)C(=O)C(=O)N2CCCC[C@H]2C(=O)O[C@H]([C@H](C)C[C@@H]2CC[C@@H](OP(C)(C)=O)[C@H](OC)C2)CC(=O)[C@H](C)/C=C(\C)[C@@H](O)[C@@H](OC)C(=O)[C@H](C)C[C@H](C)/C=C/C=C/C=C/1C with SW684 was 1.11

* * *

Please provide measured relative viability for the entries that follow.
Test system: RD-ES
Assay: relative viability vs DMSO control (72 h) (fraction); higher = more viable cells
Details: 0.00152 µM
One number for each entry.

The cases that follow already have their relative viability on record.
>>> recorded_number("CCN1CCN(Cc2ccc(Nc3ncc(F)c(-c4cc(F)c5nc(C)n(C(C)C)c5c4)n3)nc2)CC1")
0.988
>>> recorded_number("CC[C@H](Nc1ncnc2[nH]cnc12)c1nc2cccc(F)c2c(=O)n1-c1ccccc1")
0.977
>>> recorded_number("C=CC(=O)N1CCC([C@@H]2CCNc3c(C(N)=O)c(-c4ccc(Oc5ccccc5)cc4)nn32)CC1")
0.978
>>> recorded_number("Cc1cc(C)c(/C=C2\\C(=O)Nc3ccccc32)[nH]1")
0.961
>>> recorded_number("COc1cc2c(Oc3ccc4[nH]c(C)cc4c3F)ncnc2cc1OCCCN1CCCC1")
0.95

Report relative viability for each item below.
1. CCc1cc2c(cc1N1CCC(N3CCOCC3)CC1)C(C)(C)c1[nH]c3cc(C#N)ccc3c1C2=O
2. CC1(C)CNc2cc(NC(=O)c3cccnc3NCc3ccncc3)ccc21

Outgoing:
1. 0.993
2. 0.957

Report relative viability for each item below.
1. C[C@@H]1CCN(C(=O)CC#N)C[C@@H]1N(C)c1ncnc2[nH]ccc12
2. COc1cc2nccc(Oc3ccc(NC(=O)Nc4cc(C)on4)c(Cl)c3)c2cc1OC
3. C[C@@H]1COCCN1c1cc(-c2ccnn2C)c2ccnc(-c3ccn[nH]3)c2n1
4. COc1cc2/c(=N/c3ccc(Br)cc3F)nc[nH]c2cc1OCC1CCN(C)CC1
5. C=CC(=O)Nc1cccc(Oc2nc(Nc3ccc(N4CCN(C)CC4)cc3)nc3ccsc23)c1
6. Cn1cc(-c2cc3c(N4CCN(c5ncc([C@@](C)(N)c6ccc(F)cc6)cn5)CC4)ncnn3c2)cn1
7. CNC(=O)c1ccc(-c2cnc3ncc(Cc4ccc5ncccc5c4)n3n2)cc1F

Outgoing:
0.952
0.994
1.04
0.957
0.953
0.934
0.987

Briefly, relative viability measured for CNC(=O)c1cc(Oc2ccc(NC(=O)Nc3ccc(Cl)c(C(F)(F)F)c3)c(F)c2)ccn1 : 0.991

Source listed as the supplement of paper PMC10883282.
